- Tested on: NCI-H23 lung
- EXPERIMENT NOTES: NCI-60 one-dose screen, 48 h (100 = growth as untreated, 0 = no growth, -100 = all killed)
- CONDITION DESCRIPTION: 10 µM unless noted
The panel holds about 83,000 compounds, 20% with a hit somewhere; the sample as a whole holds those more often.
Exercise: for every item that follows, state its recorded growth.
Number in %, nothing else.

Report measured growth; entry is "O=C(Cc1ccccc1)C(F)(F)F"
103

Write down growth measured for item "CSc1nc(C)c(C(=O)CCN2CCN(c3ccccn3)CC2)s1"
106

Fill in reported growth for this entry: "N#Cc1c2ccccc2nc2ccccc12"
100

Look up growth of "CN(C)c1ccc2cc3c(cc2c1)Oc1ccccc1N3.[Cl][Zn][Cl]" and report it.
78.7

State its growth for this molecule: "CCCCCCCCCCCCCCCCCC1=NCCCN1CCO"
106

Give recorded growth. COc1cc([C@@H]2c3cc4c(cc3[C@H](OC3OC5COC(c6ccccc6)OC5C(O)C3O)[C@H]3COC(=O)[C@H]23)OCO4)cc(OC)c1OC (stereo partly drawn)
22.4

For the molecule O=[N+]([O-])CC(O)c1ccccc1 (stereo not drawn) , give its reported growth.
93.1

Input CCOc1ccc2c(c1)/C(=C\C=C\C1CC(C)C3CC(OCC)CCC3N1CC)CC(C)N2CC (stereo not drawn) , output reported growth.
14.5

Write down growth measured for item "Cc1ccc(Nc2ccc(O)c3c2C(=O)c2c(O)ccc(Nc4ccc(C)cc4)c2C3=O)cc1"
101

Identify the reported growth for the following entry. "O=[N+]([O-])c1ccc2c(c1)Cc1ccccc1-2"
99.9

Identify measured growth corresponding to CCOc1ccc(C(C[N+](=O)[O-])Sc2ccccc2N)cc1 (stereo not drawn)
10.2

Specify reported growth for the molecule shown: "CCCCCCCCCCCCCCCc1ccc(C(=O)C[n+]2ccccc2)cc1"
-62

Identify measured growth associated with "COc1cc(/C=C2\SC(=S)N(/C=C/c3nc4ccccc4[nH]c3=O)C2=O)cc(OC)c1OC"
69.7

// Input: "CCc1oc2ccccc2c1C(=O)c1cc(Br)c(O)c(Br)c1" . Output its growth only.
52.9

Look up and report measured growth for this entry: "O=C1C=CC(=O)c2c(O)c(CO)c(CO)c(O)c21"
89.2

Indicate the recorded growth value for this molecule: "Cc1ccc(NC2=CC(=O)C(=O)c3ccccc32)cc1"
-31.2

Answer with reported growth of "O=C1C=Cc2ccccc2/C1=C/c1nc(-c2ccccc2)oc1O"
82.1

Quote growth reported for "CCOC(=O)C1=NN(c2ccccc2)C(=O)/C1=C\N1C(=O)/C(=C/c2cccc(O)c2)SC1=S" please.
87.8

Output growth of "CN(C)c1ccc(/C=C/c2sc3ccc4ccccc4c3[n+]2C)cc1"
-25.9

Supply measured growth of "O=C(CCl)N(c1ccccc1)c1ccccc1" in your reply.
98.1

Check the records and state growth for "CCOC(=O)c1c(C)[nH]c2ccc(O)cc12"
103

Retrieve growth measured for "O=C1C(=O)c2cccnc2-c2ncccc21" and print it.
-68.3

Using known records, supply growth for "O=[N+]([O-])c1ccc(C(Br)c2ccc([N+](=O)[O-])cc2)cc1"
79.5

====

- Tested on: SK-MEL-5 melanoma
- EXPERIMENT NOTES: NCI-60 one-dose screen, 48 h (100 = growth as untreated, 0 = no growth, -100 = all killed)
- CONDITION DESCRIPTION: 10 µM unless noted
This is part of a sample that, as a whole, favours compounds with a hit. Of some 83,000 tested, about 20% had one in any assay.
VALUE KIND: growth (%)
Only the number, expressed in %, is required.

Please supply the value of reported growth for the item "O=C1c2ccccc2C(=O)c2c(O)c(Cl)cc(O)c21"
108

Check the records and state growth for "CCCCOS(=O)(=O)c1ccccc1"
117

Provide one value: measured growth of "OCCOSCCO"
101

Given "COc1cc(-c2ccc(-[n+]3nc(-c4ccc([N+](=O)[O-])cc4)nn3-c3ccc([N+](=O)[O-])cc3)c(OC)c2)ccc1-[n+]1nc(-c2ccc([N+](=O)[O-])cc2)nn1-c1ccc([N+](=O)[O-])cc1" , respond with its growth.
47.4

Recall and state the measured growth for "CN(Cc1ccccc1)c1ccc(SC#N)cc1" .
98.2

Output growth of "O=C(/C=C/c1ccccc1)c1ccccc1O"
94.9

Return growth for the following compound: COc1cc(NCc2ccc3nc(N)nc(N)c3c2C)cc(OC)c1OC (tested in a mixture with another compound)
21.1

Answer with the recorded growth for the compound listed here: "O=C1C=CC(O)=CC1=P(c1ccccc1)(c1ccccc1)c1ccccc1"
95.7

Return growth for the following compound: "O=C(Nc1cccc(C(F)(F)F)c1)Oc1ccc(Cl)c2cccnc12"
34

Note down growth recorded for "Cc1nn(CCO)c(C)c1N=[N+]([O-])c1c(C)nn(CCO)c1C"
71.5

====

- Test system: CCRF-CEM leukemia
- EXPERIMENT NOTES: NCI-60 one-dose screen, 48 h
- CONDITION DESCRIPTION: 10 µM unless noted
- Procedure: Growth inhibition of the CCRF-CEM human tumor cell line is measured as a screen for anti-cancer activity. Cells are grown in 96 well plates and exposed to the test compound for 48 hours. Compounds are tested at a single concentration, which is 10^-5 M for most compounds. The reported endpoint is percent growth (GI% or GIPRCNT), where numbers from 0 - 100% represent growth inhibition, and numbers from -100% - 0 represent cell death. For example, a value of 40 represents 60% growth inhibition. […]
The panel holds about 83,000 compounds, 20% with a hit somewhere; the sample as a whole holds those more often. The source made the active and inactive calls. Rule for the calls: active = growth percent below 10; inactive = the rest. *1 amine or outer side, *2 acyl side, *3 side chain or, on linkers, in order; H or OH if unused. Where a SMILES comes first, the peptide text is derived from it. Bridges are numbered along the chain shown (N, C = ends). Roman numbers before positions name the chains, in order. [ ]: non-standard residue; d: D form. Actinocin(1to9) = Cc1c2oc3c(C)ccc(C(=O)[*:2])c3nc-2c(C(=O)[*:1])c(N)c1=O; NMeV = CN[CH](C(=O)O)C(C)C; Sar = CNCC(=O)O
# output must be one of true for active, false for inactive

Returns: the outcome recorded for CCCCCCCCCCCC[N+]1(CCCCCCCCCCCC)CCCC(C)C1 (stereo unspecified) in this assay.
true

Status in this test for "COC(=O)[C@]1(C)CCC[C@]2(C)c3ccc(C(C)C)cc3C(=O)[C@@H](Br)[C@@H]12" ?
false

So what was the verdict on "N#Cc1c2ccccc2nc2ccccc12" in this test?
false

Could you check what this test reported for CCCCCCCCCCCCCCCC[N+]1(C)CCCC1c1cccnc1 (stereo unspecified) ?
false

How was OC(c1cc(-c2ccc(Cl)cc2)nc2c(Cl)cccc12)C1CCCCN1 (stereo unspecified) classified in this test?
true

// param item: CC(C)=CCCC(C)C1=C(O)C(=O)C(C)=CC1=O (stereo unspecified) ; yields the recorded call
true

Lab log entry: CC12CCC(O)CC1=CCC1C2CCC2(C)C3=NN=CC3CC12 (stereo unspecified) — outcome as called in the assay?
false

Call for entry "C[n+]1ccccc1C[n+]1ccccc1" :
false

// return assay outcome for "O=C(Cc1ccccc1)C(F)(F)F"
false

Please indicate how the test categorized "O=[N+]([O-])/C(=C/c1ccccc1)c1ccccc1" .
false

Hi, sorry to bother you, what did the test record for CCCCCCCCCCCCCCCCCC[S+](C)CC (stereo unspecified) ?
false

Please share the test call associated with "Oc1c(Cl)cc(Cl)cc1C(c1cc(Cl)cc(Cl)c1O)C(Cl)(Cl)Cl" .
true

Status in this test for NC(CS/C(Cl)=C/Cl)C(=O)O (stereo unspecified) ?
false

Which outcome was assigned to Oc1c(Cl)cc(Cl)cc1C=NCC1CCC(CN=Cc2cc(Cl)cc(Cl)c2O)CC1 (stereo unspecified) in this test?
false

// param item: "N=C1C=C(N)C(=O)c2ccccc21" ; yields the recorded call
true

What was the test verdict on "CC(C)=C1C=C2CC[C@@H]3[C@](C)(CCC[C@@]3(C)C(=O)O)[C@H]2CC1" ?
false

Hello, I am checking results. What call was entered for "CC(C)(C)c1ccc(O)c(Br)c1" ?
true

Status in this test for "O=[N+]([O-])c1ccc(Oc2ccccc2Cl)c([N+](=O)[O-])c1" ?
false

Hey, what did the test say about "CC/C(=C(/CC)c1ccc(O)cc1)c1ccc(O)cc1" ?
false

Hey, what did the test say about "Nc1ccc(Oc2ccccc2)c(Cl)c1" ?
false

How did this test come out for "CN(C)c1ccc(/C=C/c2ccnc3ccccc23)cc1" ?
false

Answer briefly: the call reported for "Clc1ccc(Cc2nc3ccccc3s2)cc1" in this assay.
false

For "O=C1/C(=C\c2ccc([N+](=O)[O-])cc2)CS(=O)(=O)C/C1=C/c1ccc([N+](=O)[O-])cc1" , what call appears in the results of this test?
true

Dear colleague, could you share the recorded outcome for "OC(Cc1cc(CC(O)(C(F)(F)F)C(F)(F)F)nc(CC(O)(C(F)(F)F)C(F)(F)F)c1)(C(F)(F)F)C(F)(F)F" when you have a moment?
true

Record request — test call for "Nc1cc(-c2ccccc2)ccc1O"
false

Assay outcome for OC(c1cc(C23CC4CC(CC(C4)C2)C3)nc2c(Cl)cc(Cl)cc12)C1CCCCN1 (stereo unspecified) : what was it?
true

Fill in: this test's call for CCOC(=O)C1(C)CCCC1N (stereo unspecified) is ___
false

Record request — test call for "CC(C)(C)c1ccc(CCO)cc1"
false

Hello, I am checking results. What call was entered for "O=C1C=CC(=O)N1c1cccc2c1CCCC2" ?
true

Hi, sorry to bother you, what did the test record for "O=C(Cc1nc2cc(Cl)c(Cl)cc2nc1CC(=O)c1cccnc1)c1cccnc1" ?
false

Tell me the assay call for CCC(C)C1NC(=O)C(NC(=O)c2c3nc4c(C(=O)NC5C(=O)NC(C(C)CC)C(=O)N6CCCC6C(=O)N(C)CC(=O)N(C)C(C(C)C)C(=O)OC5C)ccc(C)c4oc-3c(C)c(=O)c2N)C(C)OC(=O)C(C(C)C)N(C)C(=O)CN(C)C(=O)C2CCCN2C1=O (stereo unspecified) (I: TIP[Sar][NMeV] / II: TIP[Sar][NMeV]; ester I:1-I:C, II:1-II:C; linker I:N-II:N via Actinocin(1to9); configuration not given here) please.
true

What is the recorded call for this compound in the test? "CCOC(=O)C1=C(C(=O)c2ccccc2)C(c2cccc([N+](=O)[O-])c2)C(C(=O)c2ccccc2)=C(C(=O)OCC)N1"
false

Recorded test call requested for "Cn1c(-c2ccccc2)c(/C=C/C2=[N+](C)c3ccccc3C2(C)C)c2ccccc21"
true

Give the logged outcome of this assay for the following compound: CCOc1ccc(C(CN2CCOCC2)C(C)=O)cc1OC (stereo unspecified)
false

I would be grateful if you could indicate the recorded call for "O=C(c1ccccc1)N(CCCl)C(=O)N(CCCl)C(=O)c1ccccc1" .
false

Look up the recorded call for Oc1c(C(Nc2ccccc2)c2ccccc2)ccc2cccnc12 (stereo unspecified) in this test.
false

Fill in: this test's call for "CCN(CC)c1ccc(/C=C\C(=O)c2ccc(NC(C)=O)cc2)cc1" is ___
false

Can you look up the reported call for "O=[N+]([O-])c1cc(-c2ccccc2)c(O)c([N+](=O)[O-])c1" for me?
false

Assay result, entry CCCCC(C=O)(C=C=C(C)C)CC (stereo unspecified) — outcome?
false

Hello, I am checking results. What call was entered for "O=C(C[P+](c1ccccc1)(c1ccccc1)c1ccccc1)c1ccccc1" ?
false

Record request — test call for "[Cl-].[Rh+3].c1ccc(-c2ccnc3c2ccc2c(-c4ccccc4)ccnc23)cc1.c1ccc(-c2ccnc3c2ccc2c(-c4ccccc4)ccnc23)cc1.c1ccc(-c2ccnc3c2ccc2c(-c4ccccc4)ccnc23)cc1"
false
